molecular target: HDAC1 (Homo sapiens); experiment: HDAC biochemical activity measurement (fluorescent substrate deacetylation);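 as to IC50 HDAC1: fluorogenic acetyl-lysine substrate (20 µM) deacetylated by HDAC1, then developer releases fluorophore read at 360 nm excitation and 460 nm emission, inhibitor incubated 30 min at 37 °C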; details: HDAC1; 37° C. 30 minutes; read-out: IC50 HDAC1
Sequence (Q13547 whole entry, species assumed): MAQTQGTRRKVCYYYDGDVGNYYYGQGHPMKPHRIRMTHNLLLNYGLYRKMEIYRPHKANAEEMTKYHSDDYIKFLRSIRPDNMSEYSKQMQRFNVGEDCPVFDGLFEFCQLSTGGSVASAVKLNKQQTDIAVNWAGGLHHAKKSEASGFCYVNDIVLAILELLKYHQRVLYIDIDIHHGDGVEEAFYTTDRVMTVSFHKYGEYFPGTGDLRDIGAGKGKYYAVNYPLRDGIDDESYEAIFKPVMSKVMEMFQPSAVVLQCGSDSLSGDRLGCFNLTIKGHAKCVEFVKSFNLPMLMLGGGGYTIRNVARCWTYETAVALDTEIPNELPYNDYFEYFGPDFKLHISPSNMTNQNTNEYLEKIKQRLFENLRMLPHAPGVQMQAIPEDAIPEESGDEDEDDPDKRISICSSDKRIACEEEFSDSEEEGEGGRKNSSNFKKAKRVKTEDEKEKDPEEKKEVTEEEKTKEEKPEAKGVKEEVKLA
pIC50: −log10 of the molar value.
# pIC50 >= 7 gives TRUE, anything below gives FALSE

Previously resolved entries follow.
C/C=C1\NC(=O)c2cc(F)cc(n2)CNC(=O)C[C@@H](/C=C/CCSC(=O)CC)OC(=O)[C@H](C(C)C)NC1=O [Compound 46]    TRUE
C/C=C1\NC(=O)c2cccc(n2)CNC(=O)C[C@@H](/C=C/CCSC(C)=O)OC(=O)[C@H](CCCCN)NC1=O [Compound 15]    FALSE

Alright, here's another compound for you.
query: Decide: pIC50 of C/C=C1\NC(=O)c2cccc(n2)CNC(=O)C[C@@H](/C=C/CCSC(=O)CCCCCCC)OC(=O)[C@H](c2ccc(O)cc2)NC1=O [Compound 238] >= 7?
result: TRUE

====

Test system: H1975 (non-small cell lung adenocarcinoma)
Test: MTT cancer cell growth inhibition
Type: cell-based
Conditions: Homo sapiens, NCI-H1975, 72 h, MTT, 72 hours incubation, H1975 cells; read-out: GI50 H1975
From the text: MTT assay principle is yellow MTT can penetrate membrane into the cell, succinic dehydrogenase of the mitochondria in living cells can make exogenous MTT reduction of insoluble in water of blue-violet acicular formazan for crystallization and deposition in the cell, crystallization can be dissolved dimethyl sulfoxide (DMSO) solution, detected its absorbance at 490 nm/570 nm wavelength by enzyme-linked immunosorbent assay, which can reflect the number of cells. […] e) 570 nm readings. […]
Catalogue of GI50 readings, one per entry.
Hi! Could you send only the number? It should be in nM, unit omitted.

Some solved cases for reference:
C/C=C1\NC(=O)c2nc(ccc2F)CNC(=O)C[C@@H](/C=C/CCSC(=O)CCCCCCC)OC(=O)[C@H](CC)NC1=O [Example 54]    43
C/C=C1\NC(=O)c2cc(F)cc(n2)CNC(=O)C[C@@H](/C=C/CCSC(=O)CCCCCCC)OC(=O)[C@H](C(C)C)NC1=O [Example 31]    42
C/C=C1\NC(=O)c2ccc(SC)c(n2)CNC(=O)C[C@@H](/C=C/CCSC(=O)CCCCCCC)OC(=O)[C@H](C)NC1=O [Compound 182]    39
C/C=C1\NC(=O)c2cc(F)cc(n2)CNC(=O)C[C@@H](/C=C/CCS)OC(=O)[C@H](CCCCN)NC1=O [Compound 117]    72
C/C=C1\NC(=O)c2ccc(F)c(n2)CNC(=O)C[C@@H](/C=C/CCSC(=O)CCCCCCC)OC(=O)[C@H](Cc2ccccc2)NC1=O [Example 71]    51

query: GI50 lookup needed for C/C=C1\NC(=O)c2ccc(SC)c(n2)CNC(=O)C[C@@H](/C=C/CCSC(=O)CCCCCCC)OC(=O)[C@H](CC)NC1=O [Compound 173] , thanks.
result: 36

query: GI50 lookup needed for C/C=C1\NC(=O)c2nc(ccc2SC)CNC(=O)C[C@@H](/C=C/CCSC(C)=O)OC(=O)[C@H](CCCCNC(=O)OCC2c3ccccc3-c3ccccc32)NC1=O [Compound 195] , thanks.
result: 38

query: GI50 lookup needed for C/C=C1\NC(=O)c2nc(ccc2F)CNC(=O)C[C@@H](/C=C/CCSC(=O)CCCCC)OC(=O)[C@H](C(C)C)NC1=O [Compound 36] , thanks.
result: 19

====

Catalogue of GI50 readings, one per entry.
system: SGC-7901 (human gastric cancer cells); assay: MTT cancer cell growth inhibition; format: cell-based; details: Homo sapiens, SGC-7901, 72 h, MTT, 72 hours incubation, SGC-7901 cells; read-out: GI50 SGC-7901
Hi! Could you send only the number? It should be in nM, unit omitted.

query: GI50 lookup needed for "C/C=C1\NC(=O)c2nc(ccc2SC)CNC(=O)C[C@@H](/C=C/CCSC(C)=O)OC(=O)[C@H](Cc2cccc3ccccc23)NC1=O" , thanks.
result: 16

query: GI50 lookup needed for "C/C=C1\NC(=O)c2ccc(F)c(n2)CNC(=O)C[C@@H](/C=C/CCSC(C)=O)OC(=O)[C@H](CCCCN)NC1=O" , thanks.
result: 49

query: GI50 lookup needed for "C/C=C1\NC(=O)c2nc(ccc2F)CCNC(=O)C[C@@H](/C=C/CCSC(C)=O)OC(=O)[C@H](C(C)C)NC1=O" , thanks.
result: 37

====

Biological target: UniProt:Q9BY41
Sequence (Q9BY41 1-377): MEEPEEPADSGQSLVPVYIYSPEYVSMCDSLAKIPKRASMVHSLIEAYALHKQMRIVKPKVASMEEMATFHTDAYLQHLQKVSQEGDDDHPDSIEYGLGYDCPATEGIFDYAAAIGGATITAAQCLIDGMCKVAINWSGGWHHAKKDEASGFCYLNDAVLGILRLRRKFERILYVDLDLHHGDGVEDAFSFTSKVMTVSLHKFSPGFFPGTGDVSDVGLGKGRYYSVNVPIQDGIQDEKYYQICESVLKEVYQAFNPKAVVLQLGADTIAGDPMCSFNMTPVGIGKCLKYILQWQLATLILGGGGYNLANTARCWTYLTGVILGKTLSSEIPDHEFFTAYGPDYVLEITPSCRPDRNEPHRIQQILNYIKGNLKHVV
Catalogue of pIC50 readings, one per entry.
Scale for pIC50: -log10 of concentration given in mol/L; no unit attached.

C/C=C1\NC(=O)c2cc(C)cc(n2)CNC(=O)C[C@@H](/C=C/CCSC(C)=O)OC(=O)[C@H](Cc2ccccc2)NC1=O    7.80
C/C=C1\NC(=O)c2cccc(n2)CNC(=O)C[C@@H](/C=C/CCSC(=O)CCCCCCC)OC(=O)[C@H](CC)NC1=O    7.31
C/C=C1\NC(=O)c2cccc(n2)CNC(=O)C[C@@H](/C=C/CCSC(=O)CCCC)OC(=O)[C@H](C(C)C)NC1=O    6.79
C/C=C1\NC(=O)c2nc(ccc2F)CNC(=O)C[C@@H](/C=C/CCSC(=O)CCCCCC)OC(=O)[C@H](C(C)C)NC1=O    7.23
C/C=C1\NC(=O)c2nc(ccc2F)CNC(=O)C[C@@H](/C=C/CCSC(C)=O)OC(=O)[C@H](C(C)C)NC1=O    7.85

Here is the next item to consider.
query: # get_value(readout= pIC50, system= UniProt:Q9BY41) for "C/C=C1\NC(=O)c2cccc(n2)CNC(=O)C[C@@H](/C=C/CCSC(=O)CCCCCCC)OC(=O)CNC1=O"
result: 7.33

====

system: HT1080 (human fibrosarcoma cells); assay: MTT cancer cell growth inhibition; format: cell-based; details: Homo sapiens, HT-1080, 72 h, MTT, 72 hours incubation; read-out: GI50 HT1
valueKind: GI50 (nM)
Hi! Could you send only the number? It should be in nM, unit omitted.

Some solved cases for reference:
C/C=C1\NC(=O)c2nc(ccc2F)CCNC(=O)C[C@@H](/C=C/CCSC(C)=O)OC(=O)[C@H](C(C)C)NC1=O    80
C/C=C1\NC(=O)c2cccc(n2)CNC(=O)C[C@@H](/C=C/CCS)OC(=O)[C@@H](C)NC1=O    100
C/C=C1\NC(=O)c2cccc(n2)CCNC(=O)C[C@@H](/C=C/CCS)OC(=O)[C@H](C(C)C)NC1=O    80

query: GI50 lookup needed for "C/C=C1\NC(=O)c2cc(F)cc(n2)CNC(=O)C[C@@H](/C=C/CCSC(C)=O)OC(=O)[C@H](Cc2ccc(O)cc2)NC1=O" , thanks.
result: 80

query: GI50 lookup needed for "C/C=C1\NC(=O)c2cc(F)cc(n2)CNC(=O)C[C@@H](/C=C/CCSC(=O)CCCC)OC(=O)[C@H](C(C)C)NC1=O" , thanks.
result: 70

query: GI50 lookup needed for "C/C=C1\NC(=O)c2ccc(F)c(n2)CNC(=O)C[C@@H](/C=C/CCSC(=O)CCCCCCC)OC(=O)[C@H](Cc2ccccc2)NC1=O" , thanks.
result: 80

====

test system: MDA-MB-231 (breast cancer cells); assay: MTT cancer cell growth inhibition; format: cell-based; settings: Homo sapiens, MDA-MB-231, 72 h, read-out: GI50 MDA-MB-231, MTT, 72 hours incubation, MDA-MB-231 cells
valueKind: GI50 (nM)
Hi! Could you send only the number? It should be in nM, unit omitted.

Some solved cases for reference:
C/C=C1\NC(=O)c2nccc(n2)CNC(=O)C[C@@H](/C=C/CCS)OC(=O)[C@H](C)NC1=O    37
C/C=C1\NC(=O)c2nc(ccc2F)CNC(=O)C[C@@H](/C=C/CCSC(C)=O)OC(=O)[C@H](Cc2cccc3ccccc23)NC1=O    29
C/C=C1\NC(=O)c2cc(F)cc(n2)CNC(=O)C[C@@H](/C=C/CCSC(C)=O)OC(=O)[C@H](CC)NC1=O    39
C/C=C1\NC(=O)c2nc(ccc2SC)CNC(=O)C[C@@H](/C=C/CCSC(C)=O)OC(=O)[C@H](CCCCNC(=O)OCC2c3ccccc3-c3ccccc32)NC1=O    91
C/C=C1\NC(=O)c2ccc(SC)c(n2)CNC(=O)C[C@@H](/C=C/CCSC(=O)CC)OC(=O)[C@H](C(C)C)NC1=O    96

Here is the next item to consider.
query: GI50 lookup needed for "C/C=C1\NC(=O)c2cccc(n2)CNC(=O)C[C@@H](/C=C/CCS)OC(=O)[C@H](Cc2cccc3ccccc23)NC1=O" , thanks.
result: 39
